Property: abundance fitness; scope: individual variants
B1: E3 ubiquitin-protein ligase NEDD4-like, residues 539 to 589; numbered along this chain, Q96PU5 (parent)
chain: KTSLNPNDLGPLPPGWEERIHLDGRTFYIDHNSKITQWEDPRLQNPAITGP

Variants of: B1
Protocol description: abundance fitness (aPCA) (normalised: wild type 0, dead -1); higher = more abundant; growth selection in yeast, the domain comes from the species named
Conditions used: Homo sapiens
Measurement name: abundance fitness

[[record]]
mutation_string = "E17N"
recorded_value = -0.61

[[record]]
mutation_string = "R19T"
recorded_value = -0.342

[[record]]
mutation_string = "N45L"
recorded_value = -0.094

[[record]]
mutation_string = "L43V"
recorded_value = -0.088

[[record]]
mutation_string = "T2C"
recorded_value = -0.181

[[record]]
mutation_string = "H21K"
recorded_value = -0.178

[[record]]
mutation_string = "S33V"
recorded_value = -0.385

[[record]]
mutation_string = "S3L"
recorded_value = -0.345

[[record]]
mutation_string = "K34P"
recorded_value = -0.857

[[record]]
mutation_string = "G10T"
recorded_value = -0.15

[[record]]
mutation_string = "S3I"
recorded_value = -0.162

[[record]]
mutation_string = "N45I"
recorded_value = -0.099

[[record]]
mutation_string = "P51S"
recorded_value = -0.336

[[record]]
mutation_string = "P11W"
recorded_value = -0.613

[[record]]
mutation_string = "P6W"
recorded_value = -0.176

[[record]]
mutation_string = "A47S"
recorded_value = -0.04

[[record]]
mutation_string = "D8N"
recorded_value = 0.013

[[record]]
mutation_string = "G10C"
recorded_value = -0.28

[[record]]
mutation_string = "W16M"
recorded_value = -0.46

[[record]]
mutation_string = "I29Y"
recorded_value = -0.017

[[record]]
mutation_string = "R25W"
recorded_value = -0.72

[[record]]
mutation_string = "G15H"
recorded_value = -0.407

[[record]]
mutation_string = "R19L"
recorded_value = -0.354

[[record]]
mutation_string = "E39F"
recorded_value = -0.45

[[record]]
mutation_string = "L4S"
recorded_value = -0.07

[[record]]
mutation_string = "G15N"
recorded_value = -0.018

[[record]]
mutation_string = "D8F"
recorded_value = -0.321

[[record]]
mutation_string = "G15S"
recorded_value = -0.394

[[record]]
mutation_string = "P46I"
recorded_value = -0.171

[[record]]
mutation_string = "T2K"
recorded_value = -0.066

[[record]]
mutation_string = "L22D"
recorded_value = 0.048

[[record]]
mutation_string = "T2H"
recorded_value = -0.385

[[record]]
mutation_string = "L22A"
recorded_value = 0.156

[[record]]
mutation_string = "K34E"
recorded_value = -0.251

[[record]]
mutation_string = "I29H"
recorded_value = -0.782

[[record]]
mutation_string = "L12I"
recorded_value = -0.488

[[record]]
mutation_string = "T36L"
recorded_value = -0.558

[[record]]
mutation_string = "S33W"
recorded_value = -0.802

[[record]]
mutation_string = "Q44R"
recorded_value = -0.039

[[record]]
mutation_string = "I35Q"
recorded_value = 0.029

[[record]]
mutation_string = "N32W"
recorded_value = -0.395

[[record]]
mutation_string = "Y28C"
recorded_value = -0.902

[[record]]
mutation_string = "L22P"
recorded_value = 0.246

[[record]]
mutation_string = "H31S"
recorded_value = -0.08

[[record]]
mutation_string = "F27W"
recorded_value = -0.346

[[record]]
mutation_string = "D8I"
recorded_value = -0.189

[[record]]
mutation_string = "L22S"
recorded_value = 0.154

[[record]]
mutation_string = "I29L"
recorded_value = -0.175

[[record]]
mutation_string = "Q44Y"
recorded_value = -0.336

[[record]]
mutation_string = "S3N"
recorded_value = 0.093

[[record]]
mutation_string = "K34D"
recorded_value = -0.063

[[record]]
mutation_string = "I20S"
recorded_value = 0.047

[[record]]
mutation_string = "H21P"
recorded_value = -0.693

[[record]]
mutation_string = "T36V"
recorded_value = -0.263

[[record]]
mutation_string = "P14G"
recorded_value = -0.205

[[record]]
mutation_string = "N7I"
recorded_value = -0.169

[[record]]
mutation_string = "Q37S"
recorded_value = -0.014

[[record]]
mutation_string = "G50A"
recorded_value = 0.012

[[record]]
mutation_string = "D8A"
recorded_value = -0.138

[[record]]
mutation_string = "D40T"
recorded_value = -0.919

[[record]]
mutation_string = "L4T"
recorded_value = -0.303

[[record]]
mutation_string = "F27P"
recorded_value = -0.357

[[record]]
mutation_string = "E17R"
recorded_value = -0.746

[[record]]
mutation_string = "P14W"
recorded_value = -0.433

[[record]]
mutation_string = "H21I"
recorded_value = -0.478

[[record]]
mutation_string = "E17Y"
recorded_value = -0.986

[[record]]
mutation_string = "R19N"
recorded_value = -0.368

[[record]]
mutation_string = "S33H"
recorded_value = 0.098

[[record]]
mutation_string = "P46Q"
recorded_value = -0.27

[[record]]
mutation_string = "P41A"
recorded_value = -0.947

[[record]]
mutation_string = "A47T"
recorded_value = -0.056

[[record]]
mutation_string = "T2D"
recorded_value = 0.142

[[record]]
mutation_string = "K34R"
recorded_value = -0.119

[[record]]
mutation_string = "E17A"
recorded_value = -0.705

[[record]]
mutation_string = "L22C"
recorded_value = -0.219

[[record]]
mutation_string = "G24S"
recorded_value = -0.531

[[record]]
mutation_string = "N45Q"
recorded_value = -0.102

[[record]]
mutation_string = "G24I"
recorded_value = -1.12

[[record]]
mutation_string = "G24Y"
recorded_value = -0.76

[[record]]
mutation_string = "S3R"
recorded_value = -0.338

[[record]]
mutation_string = "L22K"
recorded_value = 0.206

[[record]]
mutation_string = "L43I"
recorded_value = -0.256

[[record]]
mutation_string = "Q37N"
recorded_value = -0.511

[[record]]
mutation_string = "Q44S"
recorded_value = -0.054

[[record]]
mutation_string = "D23K"
recorded_value = -0.333

[[record]]
mutation_string = "Y28Q"
recorded_value = -0.424

[[record]]
mutation_string = "S3G"
recorded_value = -0.353

[[record]]
mutation_string = "N45T"
recorded_value = -0.007

[[record]]
mutation_string = "T36N"
recorded_value = -0.469

[[record]]
mutation_string = "P41E"
recorded_value = -0.718

[[record]]
mutation_string = "A47R"
recorded_value = 0.004

